# target_of_assay: Luciferin 4-monooxygenase (Photinus pyralis, UniProt P08659)
# Sequence (P08659 whole entry): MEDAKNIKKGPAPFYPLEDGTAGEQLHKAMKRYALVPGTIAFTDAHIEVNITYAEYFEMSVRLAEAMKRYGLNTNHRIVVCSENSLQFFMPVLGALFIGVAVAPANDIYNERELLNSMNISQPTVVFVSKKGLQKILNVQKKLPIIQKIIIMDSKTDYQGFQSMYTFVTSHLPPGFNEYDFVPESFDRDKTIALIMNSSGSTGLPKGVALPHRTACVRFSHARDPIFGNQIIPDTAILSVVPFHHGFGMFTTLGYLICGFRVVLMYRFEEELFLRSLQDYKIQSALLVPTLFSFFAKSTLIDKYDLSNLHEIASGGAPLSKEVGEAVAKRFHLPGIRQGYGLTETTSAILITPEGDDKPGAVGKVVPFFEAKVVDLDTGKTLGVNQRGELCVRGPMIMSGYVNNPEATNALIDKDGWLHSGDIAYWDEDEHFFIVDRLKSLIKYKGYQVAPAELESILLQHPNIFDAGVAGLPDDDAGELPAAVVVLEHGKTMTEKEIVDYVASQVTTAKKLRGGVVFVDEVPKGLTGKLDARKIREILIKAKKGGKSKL
# method_summary: firefly luciferase enzyme inhibitors, dose response, biochemical, luminescence (AID 1891)
Activity calls are given as the source filed them.
Each entry below carries its recorded EC50.
measurement_name: EC50

>>> result("COc1ccc(C(=O)Nc2ccccc2C(=O)N/N=C/c2ccccn2)cc1OC")
"1.3 µM (active)"
>>> result("O=C(Oc1ccc(-c2nc(-c3ccccn3)no2)cc1)c1ccccc1")
"0.421 µM (active)"
>>> result("COc1ccc(N=Nc2n(C)c3ccccc3[n+]2C)cc1")
"0.631 µM (active)"
>>> result("OC(CNCc1cccc(Br)c1)c1ccccc1 (stereo unspecified)")
"> 112 µM (not active)"
>>> result("COC(=O)c1ccccc1NC(=O)Nc1ccc2c(c1)OCO2")
"> 112 µM (not active)"
>>> result("O=C(CSc1nc(-c2ccccc2)cs1)NCc1ccco1")
"> 112 µM (not active)"
>>> result("O=C(CCl)NCCCCCCCCCNC(=O)CCl")
"> 112 µM (not active)"
>>> result("COc1ccc(NC(=O)CCS(=O)(=O)c2ccc3nc(C)sc3c2)cc1OC")
"> 112 µM (not active)"
>>> result("COC(=O)c1sccc1NC(=O)Nc1ccc(F)cc1")
"0.535 µM (active)"
>>> result("COc1cccc(CC2(CO)CCCN(Cc3[nH]c4ccc(C)cc4c3C)C2)c1 (stereo unspecified)")
"> 112 µM (not active)"
>>> result("COc1cccc(OCc2cc(/C=N/Nc3ccc(C(=O)O)cc3)ccc2OC)c1")
"4.64 µM (active)"

====

# target_of_assay: Vascular endothelial growth factor receptor 1 (Homo sapiens, UniProt P17948);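 also: measured within a kinome-wide profiling panel, FLT1 as the panel member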
# Sequence (P17948 whole entry): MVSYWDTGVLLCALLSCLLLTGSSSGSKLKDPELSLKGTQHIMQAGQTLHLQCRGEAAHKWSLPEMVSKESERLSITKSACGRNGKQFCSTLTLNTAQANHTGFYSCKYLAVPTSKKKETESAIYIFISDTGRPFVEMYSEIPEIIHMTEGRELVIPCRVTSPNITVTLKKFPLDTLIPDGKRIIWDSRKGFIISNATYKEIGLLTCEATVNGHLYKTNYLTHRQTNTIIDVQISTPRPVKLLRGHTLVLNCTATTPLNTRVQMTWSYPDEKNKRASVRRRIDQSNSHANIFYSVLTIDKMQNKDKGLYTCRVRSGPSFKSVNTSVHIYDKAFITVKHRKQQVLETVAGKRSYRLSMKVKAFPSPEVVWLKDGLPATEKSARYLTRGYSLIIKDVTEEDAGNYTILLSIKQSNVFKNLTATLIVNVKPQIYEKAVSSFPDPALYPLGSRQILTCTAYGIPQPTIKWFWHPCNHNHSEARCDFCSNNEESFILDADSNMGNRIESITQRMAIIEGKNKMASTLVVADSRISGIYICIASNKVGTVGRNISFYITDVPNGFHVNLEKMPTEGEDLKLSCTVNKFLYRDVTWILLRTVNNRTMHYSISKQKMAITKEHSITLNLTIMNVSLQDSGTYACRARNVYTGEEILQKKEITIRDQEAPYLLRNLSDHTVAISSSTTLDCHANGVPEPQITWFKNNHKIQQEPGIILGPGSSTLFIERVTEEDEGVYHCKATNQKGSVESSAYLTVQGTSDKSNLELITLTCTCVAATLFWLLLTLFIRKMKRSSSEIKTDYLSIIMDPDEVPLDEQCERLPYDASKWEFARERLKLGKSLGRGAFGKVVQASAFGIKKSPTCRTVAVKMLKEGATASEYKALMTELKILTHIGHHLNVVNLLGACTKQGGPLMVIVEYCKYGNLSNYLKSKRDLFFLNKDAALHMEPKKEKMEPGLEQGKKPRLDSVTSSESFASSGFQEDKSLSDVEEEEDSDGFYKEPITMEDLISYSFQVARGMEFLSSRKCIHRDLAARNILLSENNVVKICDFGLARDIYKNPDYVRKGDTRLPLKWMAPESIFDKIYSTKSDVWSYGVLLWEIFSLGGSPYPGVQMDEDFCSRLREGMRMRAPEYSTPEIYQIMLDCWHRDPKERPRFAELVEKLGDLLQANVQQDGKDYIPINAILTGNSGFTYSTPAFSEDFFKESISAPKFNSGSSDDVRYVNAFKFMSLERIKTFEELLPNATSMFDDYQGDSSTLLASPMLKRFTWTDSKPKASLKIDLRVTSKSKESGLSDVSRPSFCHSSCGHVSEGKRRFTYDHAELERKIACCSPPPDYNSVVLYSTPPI
# Assay type: functional
Activity calls are given as the source filed them.
Outcomes: active, inactive

>>> group("O=c1[nH]c2cc(Br)cnc2[nH]1")
"active"
>>> group("O=C(Nc1cccc(C(F)(F)F)n1)Nc1ccnc2cc(Cl)ccc12")
"inactive"
>>> group("CCC1CC(NS(=O)(=O)C2CC2)CC1c1ncc2cnc3[nH]ccc3n12 (centres undefined)")
"inactive"
>>> group("O=C(Nc1cccc(C(F)(F)F)n1)Nc1ccnc2cc(OC(F)F)ccc12")
"inactive"

====

Each entry below carries its recorded EC50.
# method_summary: cytotoxicity toward NIH3T3 fibroblasts, dose response, counter-screen, cell-based, ATP luminescence, mouse fibroblasts (AID 2010);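 also: cells exposed to compound for about 90 hours before reading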
# Format: functional
measurement_name: EC50

>>> result("COc1ccccc1C(=O)C1CCCN(Cc2c[nH]nc2C2CCCCC2)C1 (stereo not given)")
"> 60 µM (not active)"
>>> result("CC(C)(C)c1ccc(OCCOc2ccc(C(C)(C)C)cc2NC=O)c(NC=O)c1")
"> 60 µM (not active)"
>>> result("CC(C)(C)C1CCc2sc(C(=O)NNC(=O)CCl)cc2C1 (stereo not given)")
"> 60 µM (inconclusive)"
>>> result("COCCN(Cc1c[nH]nc1-c1ccc2cc(OC)ccc2c1)C(C)C")
"> 60 µM (not active)"
>>> result("O=C(Nc1cccc(S(=O)(=O)N2CCOCC2)c1)c1cn(-c2ccccc2)nc1-c1ccc(F)cc1")
"> 60 µM (inconclusive)"

====

# target_of_assay: Short transient receptor potential channel 4 (Mus musculus)
# Sequence (Q9QUQ5 whole entry): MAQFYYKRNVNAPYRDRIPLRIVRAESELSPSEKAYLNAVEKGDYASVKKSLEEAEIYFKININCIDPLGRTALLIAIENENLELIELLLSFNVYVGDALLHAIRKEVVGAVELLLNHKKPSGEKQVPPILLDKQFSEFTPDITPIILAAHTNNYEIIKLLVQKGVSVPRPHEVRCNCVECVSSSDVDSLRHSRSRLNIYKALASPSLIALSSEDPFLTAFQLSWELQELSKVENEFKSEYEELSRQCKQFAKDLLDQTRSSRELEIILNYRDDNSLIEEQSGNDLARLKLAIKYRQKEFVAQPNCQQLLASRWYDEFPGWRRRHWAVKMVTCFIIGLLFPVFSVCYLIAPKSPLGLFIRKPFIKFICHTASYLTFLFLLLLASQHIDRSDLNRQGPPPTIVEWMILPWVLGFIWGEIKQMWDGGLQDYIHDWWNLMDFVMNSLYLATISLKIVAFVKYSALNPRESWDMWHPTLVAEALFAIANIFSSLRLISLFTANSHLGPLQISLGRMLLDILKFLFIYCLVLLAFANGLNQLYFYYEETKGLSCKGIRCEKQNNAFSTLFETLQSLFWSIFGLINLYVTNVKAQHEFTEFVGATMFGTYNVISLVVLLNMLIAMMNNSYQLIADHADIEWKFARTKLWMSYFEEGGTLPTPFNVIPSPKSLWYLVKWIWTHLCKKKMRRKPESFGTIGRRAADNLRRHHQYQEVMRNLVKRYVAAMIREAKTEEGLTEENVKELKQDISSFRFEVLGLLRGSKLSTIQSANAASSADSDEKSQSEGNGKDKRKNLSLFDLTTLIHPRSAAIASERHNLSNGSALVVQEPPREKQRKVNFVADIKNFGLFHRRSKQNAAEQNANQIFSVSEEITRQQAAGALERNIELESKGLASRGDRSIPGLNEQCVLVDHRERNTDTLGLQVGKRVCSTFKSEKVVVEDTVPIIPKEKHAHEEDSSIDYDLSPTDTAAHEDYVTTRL
# method_summary: mouse TRPC4 channel inhibitors, dose response, cell-based, HEK293 TRPC4/mu-opioid, Fluo-4 calcium (AID 434942);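 also: potency of inhibitors blocking the TRPC4 calcium response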
# Assay type: functional
Calls of active or inactive are those of the source.
measurement_name: EC50

>>> result("Cc1cccc2cc(CN(CCCN(C)C)C(S)=NCCc3ccccc3)c(O)nc12")
"4.22 µM (active)"
>>> result("COc1ncnc2sc3c(c12)CCCC3")
"5.96 µM (active)"
>>> result("C#Cc1ccc(CN2CCCC(C(=O)Nc3ccccc3Oc3cccnc3)C2)cc1 (configuration not stated)")
"1.68 µM (active)"
>>> result("Cc1c(CCOC(=O)CC23CC4CC(CC(C4)C2)C3)sc[n+]1Cc1ccccc1")
"5.96 µM (active)"
>>> result("CCN(CC)c1ncnc2scc(C3COc4ccccc4O3)c12 (configuration not stated)")
"5.31 µM (active)"
>>> result("CC1CCN(CCCOc2ccc(OCc3ccccc3)cc2)CC1")
"0.531 µM (active)"
>>> result("O=C(COC(=O)c1c(Cl)cccc1Cl)Nc1ccccc1Br")
"1.33 µM (active)"
